- targetOrSystem: UniProtKB P35498
- assayOverview: Use-dependent inhibition of the CNS Nav1.1 sodium channel
- Type: cell-based
- testSettings: use-dependent block, 25 Hz, pulse 20, read-out: Nav1.1 UDB 25 Hz 10 uM
// values below are reported inhibition at 10 µM
Please answer using the number first and the unit second.

- FC(F)(F)Oc1ccc(-c2ccc3onc(OCc4nnc(C5CC5)o4)c3c2)cc1: 29.4%

Asked: What does the record list as inhibition at 10 µM for `COc1cc2onc(OCc3ncccn3)c2cc1-c1ccc(Cl)c(F)c1` ?
Given back: 30.8%

Asked: Quick one: inhibition at 10 µM of `FC(F)(F)Oc1ccc(-c2ccc3onc(OCc4cn5ccccc5n4)c3c2)cc1` ?
Given back: 30%

---

- targetOrSystem: wild-type human cardiac sodium channel, hNav1.5 (Homo sapiens, UniProt Q14524)
- Sequence (Q14524 whole entry): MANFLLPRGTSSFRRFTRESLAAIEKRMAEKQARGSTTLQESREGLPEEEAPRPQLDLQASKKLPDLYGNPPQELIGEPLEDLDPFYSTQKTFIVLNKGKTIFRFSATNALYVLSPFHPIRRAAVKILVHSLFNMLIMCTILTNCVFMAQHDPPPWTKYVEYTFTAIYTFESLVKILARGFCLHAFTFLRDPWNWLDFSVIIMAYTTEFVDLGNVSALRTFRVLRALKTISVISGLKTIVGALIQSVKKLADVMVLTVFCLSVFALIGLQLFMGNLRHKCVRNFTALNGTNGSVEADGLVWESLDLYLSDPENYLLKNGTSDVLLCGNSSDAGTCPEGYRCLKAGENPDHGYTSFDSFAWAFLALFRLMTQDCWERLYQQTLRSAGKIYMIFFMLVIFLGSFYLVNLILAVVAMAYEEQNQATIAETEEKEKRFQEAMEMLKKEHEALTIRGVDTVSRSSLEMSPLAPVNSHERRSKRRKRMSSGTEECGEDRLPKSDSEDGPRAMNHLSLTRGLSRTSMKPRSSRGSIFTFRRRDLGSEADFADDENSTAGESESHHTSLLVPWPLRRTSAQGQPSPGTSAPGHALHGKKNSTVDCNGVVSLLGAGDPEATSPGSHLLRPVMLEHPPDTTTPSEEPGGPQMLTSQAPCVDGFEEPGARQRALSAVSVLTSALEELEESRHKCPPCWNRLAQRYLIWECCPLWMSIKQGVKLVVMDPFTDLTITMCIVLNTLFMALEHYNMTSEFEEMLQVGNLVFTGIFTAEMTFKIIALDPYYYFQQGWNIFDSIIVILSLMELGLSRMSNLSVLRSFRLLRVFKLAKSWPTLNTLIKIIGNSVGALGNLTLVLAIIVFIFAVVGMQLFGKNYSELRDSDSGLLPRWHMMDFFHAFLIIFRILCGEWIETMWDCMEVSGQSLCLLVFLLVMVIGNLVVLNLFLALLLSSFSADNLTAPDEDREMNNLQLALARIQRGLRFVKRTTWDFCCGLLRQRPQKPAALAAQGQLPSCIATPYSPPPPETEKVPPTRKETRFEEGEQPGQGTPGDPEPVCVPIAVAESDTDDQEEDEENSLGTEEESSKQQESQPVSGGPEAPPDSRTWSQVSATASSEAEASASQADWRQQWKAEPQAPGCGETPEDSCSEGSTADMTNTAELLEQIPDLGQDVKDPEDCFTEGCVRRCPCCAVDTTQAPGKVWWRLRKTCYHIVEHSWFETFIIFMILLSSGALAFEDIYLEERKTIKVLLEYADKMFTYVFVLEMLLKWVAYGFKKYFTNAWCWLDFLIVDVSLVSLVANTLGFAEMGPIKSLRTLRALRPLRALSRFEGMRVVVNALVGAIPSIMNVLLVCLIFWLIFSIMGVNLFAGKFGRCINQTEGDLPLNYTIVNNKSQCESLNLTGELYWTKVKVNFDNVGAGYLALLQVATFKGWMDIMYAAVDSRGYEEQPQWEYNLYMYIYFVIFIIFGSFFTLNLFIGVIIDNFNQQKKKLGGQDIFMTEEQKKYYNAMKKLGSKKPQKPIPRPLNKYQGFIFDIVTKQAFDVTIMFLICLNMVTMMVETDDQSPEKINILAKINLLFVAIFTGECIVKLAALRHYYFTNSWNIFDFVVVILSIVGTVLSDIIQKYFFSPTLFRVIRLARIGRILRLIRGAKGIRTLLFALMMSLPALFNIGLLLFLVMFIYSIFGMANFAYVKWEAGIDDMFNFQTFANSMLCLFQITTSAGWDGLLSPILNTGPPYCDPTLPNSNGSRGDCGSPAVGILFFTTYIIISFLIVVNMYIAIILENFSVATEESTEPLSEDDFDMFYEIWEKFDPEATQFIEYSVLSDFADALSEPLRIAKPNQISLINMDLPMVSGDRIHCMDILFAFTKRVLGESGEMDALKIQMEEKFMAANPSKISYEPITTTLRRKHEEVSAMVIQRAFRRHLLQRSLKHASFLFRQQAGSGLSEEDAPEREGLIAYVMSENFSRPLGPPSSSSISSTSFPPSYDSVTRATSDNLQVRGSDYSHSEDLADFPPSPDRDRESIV
- assayOverview: Late INa screening assay (QPatch whole cell patch clamp, Tefluthrin-induced late current)
- Assay type: cell-based
- testSettings: 1 uM; HEK293 hNav1.5; percent block of late INa
measuredParameter: inhibition at 1 µM (%)
Give the value in % but do not write % after it.

Check out these entries, answers already filled in.
- Cc1cccc(COc2noc3ccc(-c4ccc(OC(F)(F)F)cc4)cc23)n1: 51.7
- Cc1nnc(C(C)Oc2noc3ccc(-c4ccc(OC(F)(F)F)cc4)cc23)o1 (centres unmarked): 67.6
- Cc1ncn(-c2noc3ccc(-c4ccc(OC(F)(F)F)cc4)cc23)n1: 38.6

Asked: Fill blank: measured inhibition at 1 µM of the molecule `Fc1cc(C(F)(F)F)ccc1-c1cc2c(OCc3ncccn3)noc2cc1F` is ____.
Given back: 35.5

Asked: # inhibition at 1 µM lookup, item `FC(F)(F)Oc1ccc(-c2ccc3onc(OCc4nnc(C5CC5)o4)c3c2)cc1`
Given back: 59.2

Asked: Endpoint output: inhibition at 1 µM of `FC(F)(F)Oc1ccc(-c2ccc3onc(NCc4ncccn4)c3c2)cc1` . Value?
Given back: 50

Asked: Value lookup for inhibition at 1 µM; key = `CC(C)[C@H](N)COc1noc2ccc(-c3ccc(OC(F)(F)F)cc3)cc12`
Given back: 66.1

Asked: Entry under review: `O=C1CC[C@@H](COc2noc3ccc(-c4ccc(OC(F)(F)F)cc4)cc23)N1` . Reported inhibition at 1 µM?
Given back: 28.4
